target: T1, biotinylated goat anti-human kappa light chain; test: ELISA, positive control; further: test concentration or dose not given here
T1 construct: positive control of the ELISA
property_name: optical density
Could you kindly put the unit after your number?

Example entries and their recorded answers appear below.
{"binder": "371_D05 (antibody, V domains shown, Group II) VH: EVQLLESGGGLVQPGGSLRLSCAASGFTFDDYGMHWVRQAPGKGLEWVSGINYNGGYTSYADSVKGRFTISRDNSKNTLYLQMNSLRAEDTAVYYCARAATWHDTHLDYWGQGTLVTVSS VL: DIQMTQSPSSLSASVGDRVTITCRASQSILTYLNWYQQKPGKAPKLLIYAASSLQSGVPSRFSGSGSGTDFTLTISSLQPEDFATYYCQQSYDSPLTFGGGTKVEIK", "optical density": "3.44 OD"}
{"binder": "373_B01 (antibody, V domains shown, Group II) VH: EVQLLESGGGLVQPGGSLRLSCAASGFTFDSYGMHWVRQAPGKGLEWVSGINYNGGYKSYADSVKGRFTISRDNSKNTLYLQMNSLRAEDTAVYYCARAATWHDTHLDYWGQGTLVTVSS VL: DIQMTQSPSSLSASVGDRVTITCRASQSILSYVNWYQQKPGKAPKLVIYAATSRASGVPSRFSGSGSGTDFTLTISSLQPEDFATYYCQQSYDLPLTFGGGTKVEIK", "optical density": "3.11 OD"}

Next binder, optical density to be filled in.
Query :: Need optical density, item 365_C03 (antibody, V domains shown, Group I) VH: EVQLLESGGGLVQPGGSLRLSCAASGFTFSSYGMHWVRQAPGKGLEWVAGINYNSGYKGYADSVKGRFTISRDNSKNTLYLQMNSLRAEDTAVYYCARAANWHDTHLDYWGQGTLVTVSS VL: DIQMTQSPSSLSASVGDRVTITCRASQSILTYVNWYQQKPGKAPKLVIYATTSLASGVPSRFSGSGSGTDFTLTISSLQPEDFATYYCQQSYNTPLTFGGGTKVEIK
Result :: 3.5 OD

Data origin, for the record: patent US20210380703A1
